System: NCI-H460 lung
Test: NCI tumour cell line growth inhibition, 48 h
The following compounds are shown together with reported TGI values.

Known results for compounds:
compound="COc1ccc(C2S/C(=C\\c3cccc(O)c3)C(=O)N2NC(=O)Cc2ccccc2)cc1 (stereo not given)" reported_value="> 100 µM"
compound=CO[C@]12C[C@H](CNC(=O)c3cc(Br)c(Br)[nH]3)O[C@H]1NC(=O)N2 reported_value="> 100 µM"
compound=C=C1CO[C@@H]2C[C@@H]1CC/C(C)=C/CC/C(C)=C/CC[C@@]2(C)O reported_value="> 68.3 µM"

Problem: For NCI-H460 lung, give the measured TGI of the entry `Brc1ccc(Br)nn1`
Solution: > 33.8 µM

Problem: Give reported TGI for COC(=O)/C(=N\O)C(C(=O)C=C(C)C)C(=O)C(=O)Nc1ccccc1C (stereo not given) (NCI-H460 lung)
Solution: > 100 µM
